system: 186277-243-T-J2-PDC complex spheroid viability; assay: Anticancer human tumor 186277-243-T-J2-PDC patient-derived colon adenocarcinoma cell line growth inhibition [POLQ]; conditions: curve of first compound; second compound 1 µM
property.name: IC50

I am curious: what IC50 value has been reported for Cn1ncnc1[C@H]1c2n[nH]c(=O)c3cc(F)cc(c23)N[C@@H]1c1ccc(F)cc1 + Cc1cccc(N(C)C(=O)C2C(O)CCN2c2nc(C)cc(C(F)(F)F)c2C#N)c1 ?
> 0.1 µM

I am curious: what IC50 value has been reported for COc1ccc([C@@H](O)c2cc(-c3ncnc4cc(N5CCOCC5)ccc34)c(F)cc2Cl)nn1 + Nc1ccc(C#CCN(C(=O)Cc2ncc(C(F)(F)F)cc2C(F)(F)F)c2ccc(F)cc2)nn1 ?
> 10 µM

I am curious: what IC50 value has been reported for CC(C)n1c(=O)n(C)c2cnc3cc(F)c(-c4ccc(OCCCN5CCCCC5)nc4)cc3c21 + Nc1ccc(C#CCN(C(=O)Cc2ncc(C(F)(F)F)cc2C(F)(F)F)c2ccc(F)cc2)nn1 ?
> 10 µM

----------
system: 186277-243-T-J2-PDC complex spheroid viability; assay: Anticancer human tumor 186277-243-T-J2-PDC cell line growth inhibition [POLQ]; settings: curve of first compound; second compound 0.1 µM;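 note: spheroids exposed to compounds for seven days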
Provide the recorded IC50 for the entries that follow.

I am curious: what IC50 value has been reported for O=c1[nH]cc(F)c(=O)[nH]1 + COC1C(OC(N)=O)C(O)C(Oc2ccc3c(O)c(NC(=O)c4ccc(O)c(CC=C(C)C)c4)c(=O)oc3c2C)OC1(C)C ?
> 10000 nM

I am curious: what IC50 value has been reported for CC(=O)O[C@H]1C(=O)[C@@]2(C)[C@H]([C@H](OC(=O)c3ccccc3)[C@]3(O)C[C@H](OC(=O)[C@H](O)[C@@H](NC(=O)c4ccccc4)c4ccccc4)C(C)=C1C3(C)C)[C@]1(OC(C)=O)CO[C@@H]1C[C@@H]2O + COC1C(OC(N)=O)C(O)C(Oc2ccc3c(O)c(NC(=O)c4ccc(O)c(CC=C(C)C)c4)c(=O)oc3c2C)OC1(C)C ?
< 9.49 nM

I am curious: what IC50 value has been reported for CCCS(=O)(=O)Nc1ccc(F)c(C(=O)c2c[nH]c3ncc(-c4ccc(Cl)cc4)cc23)c1F + Cc1cccc(N(C)C(=O)C2C(O)CCN2c2nc(C)cc(C(F)(F)F)c2C#N)c1 ?
> 10000 nM

I am curious: what IC50 value has been reported for CCCS(=O)(=O)Nc1ccc(F)c(C(=O)c2c[nH]c3ncc(-c4ccc(Cl)cc4)cc23)c1F + Nc1ccc(C#CCN(C(=O)Cc2ncc(C(F)(F)F)cc2C(F)(F)F)c2ccc(F)cc2)nn1 ?
> 10000 nM

I am curious: what IC50 value has been reported for Cn1ncnc1[C@H]1c2n[nH]c(=O)c3cc(F)cc(c23)N[C@@H]1c1ccc(F)cc1 + COC1C(OC(N)=O)C(O)C(Oc2ccc3c(O)c(NC(=O)c4ccc(O)c(CC=C(C)C)c4)c(=O)oc3c2C)OC1(C)C ?
> 100 nM

I am curious: what IC50 value has been reported for CC(C)n1c(=O)n(C)c2cnc3cc(F)c(-c4ccc(OCCCN5CCCCC5)nc4)cc3c21 + Nc1ccc(C#CCN(C(=O)Cc2ncc(C(F)(F)F)cc2C(F)(F)F)c2ccc(F)cc2)nn1 ?
> 10000 nM

I am curious: what IC50 value has been reported for Nc1ccn(C2OC(CO)C(O)C2(F)F)c(=O)n1 (stereo not given) + Cc1cccc(N(C)C(=O)C2C(O)CCN2c2nc(C)cc(C(F)(F)F)c2C#N)c1 ?
< 31.6 nM

I am curious: what IC50 value has been reported for O=C(c1cc(Cc2n[nH]c(=O)c3ccccc23)ccc1F)N1CCN(C(=O)C2CC2)CC1 + Cc1cccc(N(C)C(=O)C2C(O)CCN2c2nc(C)cc(C(F)(F)F)c2C#N)c1 ?
> 10000 nM

I am curious: what IC50 value has been reported for COc1cccc2c1C(=O)c1c(O)c3c(c(O)c1C2=O)CC(O)(C(=O)CO)CC3OC1CC(N)C(O)C(C)O1 (stereo not given) + Cc1cccc(N(C)C(=O)C2C(O)CCN2c2nc(C)cc(C(F)(F)F)c2C#N)c1 ?
116 nM

I am curious: what IC50 value has been reported for COc1cccc(OCCCN)c1-c1cc(Nc2cnc(C#N)cn2)n[nH]1 + Cc1cccc(N(C)C(=O)C2C(O)CCN2c2nc(C)cc(C(F)(F)F)c2C#N)c1 ?
< 3.16 nM

I am curious: what IC50 value has been reported for CC(=O)O[C@H]1C(=O)[C@@]2(C)[C@H]([C@H](OC(=O)c3ccccc3)[C@]3(O)C[C@H](OC(=O)[C@H](O)[C@@H](NC(=O)c4ccccc4)c4ccccc4)C(C)=C1C3(C)C)[C@]1(OC(C)=O)CO[C@@H]1C[C@@H]2O + Nc1ccc(C#CCN(C(=O)Cc2ncc(C(F)(F)F)cc2C(F)(F)F)c2ccc(F)cc2)nn1 ?
< 9.49 nM

I am curious: what IC50 value has been reported for C#Cc1c(F)ccc2cc(O)cc(-c3ncc4c(N5CC6CCC(C5)N6)nc(OCC56CCCN5CC(F)C6)nc4c3F)c12 (stereo not given) + Cc1cccc(N(C)C(=O)C2C(O)CCN2c2nc(C)cc(C(F)(F)F)c2C#N)c1 ?
113 nM

I am curious: what IC50 value has been reported for CCc1c2c(nc3ccc(O)cc13)-c1cc3c(c(=O)n1C2)COC(=O)[C@]3(O)CC + Cc1cccc(N(C)C(=O)C2C(O)CCN2c2nc(C)cc(C(F)(F)F)c2C#N)c1 ?
10.2 nM

I am curious: what IC50 value has been reported for CC1COCCN1c1cc(C2(S(C)(=N)=O)CC2)nc(-c2ccnc3[nH]ccc23)n1 (stereo not given) + COC1C(OC(N)=O)C(O)C(Oc2ccc3c(O)c(NC(=O)c4ccc(O)c(CC=C(C)C)c4)c(=O)oc3c2C)OC1(C)C ?
817 nM

I am curious: what IC50 value has been reported for C=CC(=O)N1CCN(c2nc(=O)n(-c3c(C)ccnc3C(C)C)c3nc(-c4c(O)cccc4F)c(F)cc23)C(C)C1 (stereo not given) + Cc1cccc(N(C)C(=O)C2C(O)CCN2c2nc(C)cc(C(F)(F)F)c2C#N)c1 ?
> 10000 nM
